- tested target: WEE1 (Homo sapiens)
- Construct: purchased Thermo Fisher PR7373A
- Sequence (P30291 whole entry): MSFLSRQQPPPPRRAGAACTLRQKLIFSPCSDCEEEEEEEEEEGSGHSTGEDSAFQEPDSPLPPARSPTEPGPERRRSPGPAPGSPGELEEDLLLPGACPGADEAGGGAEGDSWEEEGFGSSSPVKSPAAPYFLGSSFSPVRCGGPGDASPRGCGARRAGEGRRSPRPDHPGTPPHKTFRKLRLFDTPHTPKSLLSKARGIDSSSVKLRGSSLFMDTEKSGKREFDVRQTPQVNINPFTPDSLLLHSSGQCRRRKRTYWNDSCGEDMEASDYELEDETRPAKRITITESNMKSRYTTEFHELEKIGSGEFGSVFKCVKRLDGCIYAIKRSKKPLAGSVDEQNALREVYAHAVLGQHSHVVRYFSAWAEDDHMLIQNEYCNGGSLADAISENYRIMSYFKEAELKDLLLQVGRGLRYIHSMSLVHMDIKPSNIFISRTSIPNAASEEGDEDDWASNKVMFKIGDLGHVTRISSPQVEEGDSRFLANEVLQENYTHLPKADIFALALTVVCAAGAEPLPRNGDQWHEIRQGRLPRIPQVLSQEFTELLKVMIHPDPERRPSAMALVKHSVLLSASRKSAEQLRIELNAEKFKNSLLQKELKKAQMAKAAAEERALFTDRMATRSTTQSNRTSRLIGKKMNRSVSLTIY
- procedure summary: Selectivity versus WEE1 assay (ADP-Glo enzymatic assay)
- Format: biochemical
- condition notes: ADP-Glo; 15 nM WEE1, 60 minutes at 26° C.; banded
pIC50: −log10 of the molar value.
Give measured pIC50 for each item. Keep answers brief.

Query :: Please look at this molecule and report its pIC50: `Cc1ccc(O)c(C)c1NC(=O)c1cnc(Nc2cccc(N3CCC(NC(=O)OC(C)(C)C)CC3)n2)s1`
Result :: < 4.96

Query :: Please look at this molecule and report its pIC50: `C=CC(=O)Nc1ccc(C)c(Nc2ncc(C(=O)Nc3c(C)ccc(O)c3C)s2)n1`
Result :: 4.96 to 6.00

Query :: Please look at this molecule and report its pIC50: `Cc1ccc(O)c(C)c1NC(=O)c1cnc(Nc2ccn(CC(=O)N3CCN(C(=O)OC(C)(C)C)C(C)(C)C3)n2)s1`
Result :: 4.96 to 6.00

Every entry's value here was drawn from patent US20260297042A1.
